Values from ChEMBL document CHEMBL4118174

Each item that follows carries a reported %max.
- TESTED_TARGET: Muscarinic acetylcholine receptor M1 (Homo sapiens)
- Sequence (whole entry): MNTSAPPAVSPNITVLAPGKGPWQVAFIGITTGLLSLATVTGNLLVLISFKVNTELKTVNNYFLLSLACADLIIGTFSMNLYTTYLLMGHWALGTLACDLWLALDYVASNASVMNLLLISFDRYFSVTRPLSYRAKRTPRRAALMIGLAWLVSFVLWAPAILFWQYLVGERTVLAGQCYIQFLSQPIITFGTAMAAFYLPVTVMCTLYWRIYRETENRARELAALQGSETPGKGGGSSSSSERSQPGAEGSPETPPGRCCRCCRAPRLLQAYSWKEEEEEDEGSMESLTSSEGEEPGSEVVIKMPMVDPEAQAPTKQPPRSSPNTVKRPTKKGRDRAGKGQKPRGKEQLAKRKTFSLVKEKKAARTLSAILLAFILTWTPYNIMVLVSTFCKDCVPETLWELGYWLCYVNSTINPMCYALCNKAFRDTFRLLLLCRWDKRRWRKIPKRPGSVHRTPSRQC
- PROCEDURE_TEXT: Positive allosteric modulation of human muscarinic acetylcholine M1 receptor expressed in CHO cells assessed as potentiation of acetylcholine-induced calcium mobilization relative to acetylcholine
- Type: functional, cell-based
Respond with the figure and its unit, in that order.

# count of solved cases: 6
1) Cc1ccn(-c2ccc(CN3CC(C(=O)N[C@H]4CCCC[C@@H]4O)Oc4ccccc43)cn2)n1 (stereo partly drawn): 91%
2) COc1cccnc1NC(=O)C1CN(Cc2ccc(-n3cccn3)cc2)c2ccccc2O1 (stereo not drawn): 80%
3) CN(C)c1ccc(CN2CC(C(=O)N[C@H]3CCCC[C@@H]3O)Oc3ccccc32)cn1 (stereo partly drawn): 89%
4) O=C(N[C@H]1CCCC[C@@H]1O)C1CN(Cc2ccc(-n3cccn3)nc2)c2ccccc2O1 (mixture of isomers): 92%
5) Cc1ccc(CN2CC(C(=O)N[C@H]3CCCC[C@@H]3O)Oc3ccccc32)cn1 (stereo partly drawn): 85%
6) CC(O)(CNC(=O)C1CN(Cc2ccc(-n3cccn3)cc2)c2ccccc2O1)C1CC1 (stereo not drawn): 80%

Tell me %max reported for O=C(N[C@H]1CCCC[C@@H]1O)C1CN(Cc2ccc(-n3ccnc3)nc2)c2ccccc2O1 (stereo partly drawn)
87%

Tell me %max reported for O=C(NC1CCCCC1)C1CN(Cc2ccc(-n3cccn3)cc2)c2ccccc2O1 (stereo not drawn)
35%

###

Each item that follows carries a reported fraction unbound.
- PROCEDURE_TEXT: Fraction unbound in human plasma
- Format: ADME, cell-free

1) O=C(N[C@H]1CCCC[C@@H]1O)C1CN(Cc2ccc(-n3cccn3)cc2)c2ccc(F)cc2O1 (some centres undefined): < 0.01
2) O=C(N[C@H]1CCCC[C@@H]1O)C1CN(Cc2ccc(-n3cccn3)cc2)c2c(F)cccc2O1 (some centres undefined): < 0.01
3) O=C(N[C@H]1CCCC[C@@H]1O)C1CN(Cc2ccc(-n3cccn3)cc2)c2ccccc2O1 (mixture of isomers): ≥ 0.11

// moving on: another record for fraction unbound
Tell me fraction unbound reported for O=C(N[C@H]1CCCC[C@@H]1O)C1CN(Cc2ccc(-n3cccn3)cc2)c2cc(F)ccc2O1 (some centres undefined)
< 0.01

###

- TESTED_TARGET: UniProt:P11229
- Sequence (whole entry): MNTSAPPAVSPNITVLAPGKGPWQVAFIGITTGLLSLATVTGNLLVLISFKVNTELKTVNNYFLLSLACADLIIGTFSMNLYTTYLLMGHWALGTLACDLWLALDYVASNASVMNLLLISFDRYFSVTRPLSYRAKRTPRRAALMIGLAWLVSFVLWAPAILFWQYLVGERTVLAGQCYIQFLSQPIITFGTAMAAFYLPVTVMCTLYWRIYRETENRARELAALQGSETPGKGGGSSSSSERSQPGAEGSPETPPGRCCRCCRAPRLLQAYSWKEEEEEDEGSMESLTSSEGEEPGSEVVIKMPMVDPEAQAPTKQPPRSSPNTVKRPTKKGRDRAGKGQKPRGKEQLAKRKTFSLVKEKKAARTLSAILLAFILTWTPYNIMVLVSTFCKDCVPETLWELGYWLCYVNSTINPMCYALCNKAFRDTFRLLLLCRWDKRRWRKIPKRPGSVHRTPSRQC
- PROCEDURE_TEXT: Positive allosteric modulation of human muscarinic acetylcholine M1 receptor expressed in CHO cells assessed as potentiation of acetylcholine-induced calcium mobilization relative to acetylcholine
- Type: functional, cell-based
Each item that follows carries a reported %max.
Numeric only. Scale: %

1) O=C(N[C@H]1CCCC[C@@H]1O)C1CN(Cc2ccc(-n3cccc3)nc2)c2ccccc2O1 (stereo partly drawn): 94
2) NC1CCCCC1NC(=O)C1CN(Cc2ccc(-n3cccn3)cc2)c2ccccc2O1 (stereo not drawn): 62
3) O=C(N[C@H]1CCCC[C@@H]1O)C1CN(Cc2ccc(C(F)(F)F)nc2)c2ccccc2O1 (stereo partly drawn): 84
4) O=C(NCC(O)C(F)(F)F)C1CN(Cc2ccc(-n3cccn3)cc2)c2ccccc2O1 (stereo not drawn): 78

Tell me %max reported for O=C(N[C@H]1CCCC[C@@H]1O)C1CN(Cc2ccc(-n3cccn3)cc2)c2cc(Cl)ccc2O1 (mixture of isomers)
86

Tell me %max reported for Cn1nccc1-c1ccc(CN2CC(C(=O)N[C@H]3CCCC[C@@H]3O)Oc3ccccc32)cn1 (stereo partly drawn)
94

Tell me %max reported for O=C(N[C@H]1CCCC[C@@H]1O)C1CN(Cc2ccc(-n3cccn3)cc2F)c2ccccc2O1 (mixture of isomers)
88

Tell me %max reported for O=C(N[C@H]1CCCC[C@@H]1O)C1CN(Cc2ccc(-n3cccc3)cc2)c2ccccc2O1 (mixture of isomers)
81

###

- TESTED_TARGET: Muscarinic acetylcholine receptor M1 (Homo sapiens, UniProt P11229)
- Sequence (P11229 whole entry): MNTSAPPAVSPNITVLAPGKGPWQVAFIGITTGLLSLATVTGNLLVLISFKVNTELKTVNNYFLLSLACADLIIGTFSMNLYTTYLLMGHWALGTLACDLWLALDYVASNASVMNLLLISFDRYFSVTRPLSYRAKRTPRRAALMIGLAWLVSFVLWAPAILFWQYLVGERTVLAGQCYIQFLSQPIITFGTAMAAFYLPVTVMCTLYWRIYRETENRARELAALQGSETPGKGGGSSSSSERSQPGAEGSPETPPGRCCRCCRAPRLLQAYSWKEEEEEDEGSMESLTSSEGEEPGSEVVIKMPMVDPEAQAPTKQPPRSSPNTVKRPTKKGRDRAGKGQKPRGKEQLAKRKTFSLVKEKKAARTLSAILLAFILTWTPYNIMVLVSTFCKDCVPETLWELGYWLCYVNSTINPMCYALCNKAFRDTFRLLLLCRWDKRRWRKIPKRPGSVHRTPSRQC
- PROCEDURE_TEXT: Positive allosteric modulation of human muscarinic acetylcholine M1 receptor expressed in CHO cells assessed as potentiation of acetylcholine-induced calcium mobilization
- Format: functional, cell-based
- EXPERIMENTAL_CONDITIONS: read-out: EC50
Lab note: compare EC50 with 700 nM, writing True if less and False if equal or more.

Here are 4 molecules together with their reported answers.
1) Cc1ccc(CN2CC(C(=O)N[C@H]3CCCC[C@@H]3O)Oc3ccccc32)cn1 (stereo partly specified): False
2) CC(C)(O)CNC(=O)C1CN(Cc2ccc(-n3cccn3)cc2)c2ccccc2O1 (stereo unspecified): False
3) O=C(N[C@H]1CCCC[C@@H]1O)C1Cc2ccccc2N(Cc2ccc(-n3cccn3)cc2)C1 (mixture of isomers): False
4) O=C(N[C@H]1CCOC[C@@H]1O)C1CN(Cc2ccc(-n3cccn3)cc2)c2ccccc2O1 (stereo partly specified): True

Criterion: EC50 strictly below 700 nM. Is it met by CC1(C(=O)N[C@H]2CCCC[C@@H]2O)CN(Cc2ccc(-n3cccn3)cc2)c2ccccc2O1 (mixture of isomers) ?
False

###

- PROCEDURE_TEXT: Brain to plasma permeability coefficient, Kp of compound in Sprague-Dawley rat at 0.20 to 0.25 mg/kg administered as iv cassette dose measured at 0.25 hrs post dose
- Type: ADME, organism-based
- EXPERIMENTAL_CONDITIONS: Sprague-Dawley, brain and plasma
MEASURED_ATTRIBUTE: Kp at 0.25 h
Would you mind answering with just the numeric figure?

# count of solved cases: 2
1) O=C(N[C@H]1CCOC[C@@H]1O)C1CN(Cc2ccc(-n3cccn3)cc2)c2ccccc2O1 (stereo partly drawn): 0.08
2) O=C(Nc1ncccc1O)C1CN(Cc2ccc(-n3cccn3)cc2)c2ccccc2O1 (stereo not drawn): 0.11

Tell me Kp at 0.25 h reported for O=C(NC1CCCCC1)C1CN(Cc2ccc(-n3cccn3)cc2)c2ccccc2O1 (stereo not drawn)
1.1
